Reference for the values: patent US20080161315A1

# measured_on: human V1a receptor (Homo sapiens, UniProt P37288)
# Construct: expressed in transfected cells; host or cells: HEK293 cells, transiently transfected; membrane preparation
# Sequence (P37288 whole entry): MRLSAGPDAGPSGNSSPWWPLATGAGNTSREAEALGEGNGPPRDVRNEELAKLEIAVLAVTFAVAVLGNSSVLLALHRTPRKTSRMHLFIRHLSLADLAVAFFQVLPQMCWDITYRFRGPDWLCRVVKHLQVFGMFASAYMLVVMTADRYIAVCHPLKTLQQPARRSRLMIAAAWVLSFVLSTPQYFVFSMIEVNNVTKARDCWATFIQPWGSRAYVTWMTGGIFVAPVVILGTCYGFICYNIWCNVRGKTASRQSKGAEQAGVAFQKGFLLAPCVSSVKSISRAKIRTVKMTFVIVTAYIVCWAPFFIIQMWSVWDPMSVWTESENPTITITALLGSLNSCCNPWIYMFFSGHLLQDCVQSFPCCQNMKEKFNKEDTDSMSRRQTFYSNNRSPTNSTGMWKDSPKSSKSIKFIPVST
# experiment_summary: human V1a receptor binding studies (3H-Vasopressin, SPA beads)
# condition_notes: membranes of HEK293 cells transiently transfected with human V1a receptor, Ki calculated by Cheng-Prussoff equation, read-out: pKi hV1a (converted)
Counter-ions that a name gives are not always drawn.
Note to self: use label 1 only for Ki readings below 10 nM; a reading exactly at 10 nM still gets label 0.

compound: CNC(=O)Cn1cc(C(=O)N2CCC(n3c(=O)oc4ccccc43)CC2)c2ccc(Cl)cc21 [Example 10]
measured_on: human V1a receptor (Homo sapiens, UniProt P37288)
cat: label 1
--
compound: CNCCn1cc(C(=O)N2CCC(N3C(=O)Cc4ccccc43)CC2)c2ccc(Cl)cc21 [Example 14, hydrochloride]
measured_on: human V1a receptor (Homo sapiens, UniProt P37288)
cat: label 1
--
compound: O=C(c1cn(Cc2cc(F)cc(F)c2)c2cc(Cl)ccc12)N1CCC(N2C(=O)Cc3ccccc32)CC1 [Example 2]
measured_on: human V1a receptor (Homo sapiens, UniProt P37288)
cat: label 1
--
compound: CN(C)CCn1cc(C(=O)N2CCC(N3C(=O)Cc4ccccc43)CC2)c2ccc(Cl)cc21 [Example 15]
measured_on: human V1a receptor (Homo sapiens, UniProt P37288)
cat: label 1
--
compound: CN(C)C(=O)Cn1cc(C(=O)N2CCC(n3nnc4ccccc43)CC2)c2ccc(Cl)cc21 [Example 13]
measured_on: human V1a receptor (Homo sapiens, UniProt P37288)
cat: label 0
--
compound: CN(C)CCn1cc(C(=O)N2CCC(n3nnc4ccccc43)CC2)c2ccc(Cl)cc21 [Example 17]
measured_on: human V1a receptor (Homo sapiens, UniProt P37288)
cat: label 0
--
compound: O=C(c1c[nH]c2cc(Cl)ccc12)N1CCC(N2C(=O)Cc3ccccc32)CC1 [Example 1]
measured_on: human V1a receptor (Homo sapiens, UniProt P37288)
cat: label 1
--
compound: Cc1[nH]c2cc(Cl)ccc2c1C(=O)N1CCC(N2C(=O)Cc3ccccc32)CC1 [Example 8]
measured_on: human V1a receptor (Homo sapiens, UniProt P37288)
cat: label 0
--
compound: CNC(=O)Cn1cc(C(=O)N2CCC(N3C(=O)Cc4ccccc43)CC2)c2ccc(Cl)cc21 [Example 3]
measured_on: human V1a receptor (Homo sapiens, UniProt P37288)
cat: label 1
--
compound: CC(=O)NCCn1cc(C(=O)N2CCC(N3C(=O)Cc4ccccc43)CC2)c2ccc(Cl)cc21 [Example 7]
measured_on: human V1a receptor (Homo sapiens, UniProt P37288)
cat: label 0
--
compound: CN1CCn2c(c(C(=O)N3CCC(n4nnc5ccccc54)CC3)c3ccc(Cl)cc32)C1 [Example 18]
measured_on: human V1a receptor (Homo sapiens, UniProt P37288)
cat: label 0
--
compound: CS(=O)(=O)NCCn1cc(C(=O)N2CCC(N3C(=O)Cc4ccccc43)CC2)c2ccc(Cl)cc21 [Example 6]
measured_on: human V1a receptor (Homo sapiens, UniProt P37288)
cat: label 1
--
compound: CN(C)C(=O)Cn1cc(C(=O)N2CCC(N3C(=O)Cc4ccccc43)CC2)c2ccc(Cl)cc21 [Example 4]
measured_on: human V1a receptor (Homo sapiens, UniProt P37288)
cat: label 1
--
compound: CCN(CC)C(=O)Cn1cc(C(=O)N2CCC(N3C(=O)Cc4ccccc43)CC2)c2ccc(Cl)cc21 [Example 5]
measured_on: human V1a receptor (Homo sapiens, UniProt P37288)
cat: label 0
